- testProtocol: physchem
- Format: physicochemical
- runConditions: water, 30° C.
resultType: solubility (mM)
Provide the reading as a plain figure in mM.

Quick one: solubility for c1ccoc1 ? 64
